Please respond with reported log10(IC50) for every item in the list.
System: Human betaherpesvirus 5
Experiment: Inhibitory concentration against human cytomegalovirus (CMV) in cultured human foreskin fibroblast (HFF) cells
Assay type: functional, organism-based
Settings: Human betaherpesvirus 5, HFF
# values: log10(IC50), units µg/mL

Here is how some compounds turned out for log10(IC50).
>>> value("O=C(Nc1ccc(/N=C(\\S)Nc2cc(C(F)(F)F)cc(C(F)(F)F)c2)cc1)c1ccco1")
-1.40
>>> value("O=C(Nc1ccc(/N=C(\\S)Nc2ccc(C(F)(F)F)c(Cl)c2)cc1)c1cocn1")
-1.70
>>> value("Cc1ccc(N/C(S)=N/c2ccc(NC(=O)c3ccco3)cc2)cc1Cl")
-1.05

Go through the list and state log10(IC50) for each entry.
1. O=C(Nc1ccc(NC(=S)Nc2ccccc2)cc1)c1ccco1
2. COc1cc(OC)c(N/C(S)=N/c2ccc(NC(=O)c3ccccc3)cc2)cc1Cl
3. O=C(Nc1ccc(/N=C(\S)Nc2ccc(F)c(Cl)c2)cc1)c1ccco1

1. -0.52
2. 0.60
3. -1.22
